Values compiled from patent US9029337B2.

Recorded % Inhibition, one value per entry.
tested on: human Factor 7 mRNA; experiment: Antisense inhibition of human Factor 7 mRNA in HepB3 cells, 50 nM antisense oligonucleotide, lipofectin; assay type: cell-based; settings: lipofectin, 50 nM antisense oligonucleotide, approximately 24 hours, Factor 7 mRNA by real-time RT-PCR (RTS 2927), relative to untreated control
Strand notation (5' to 3'): a small letter for the sugar, then the base; units joined by * are phosphorothioate-linked, units joined directly phosphodiester-linked; [ ] holds rarer units or linkages, { } end groups; capitals alone tell only the bases. e = 2'-O-(2-methoxyethyl) (MOE); [5mC] = 5-methylcytosine; d = 2'-deoxy (DNA)
Express your answer in %, writing the number without its unit.

Solved entries (count: 3):
416460 (antisense e[5mC]*eA*e[5mC]*e[5mC]*eA*d[5mC]*dA*dT*dG*dG*dT*d[5mC]*dA*dG*dT*eG*eA*eG*eG*eA) [compound 416460]	49
416549 (antisense eG*eA*e[5mC]*eA*eA*dT*dG*dG*dT*d[5mC]*dA*dG*dG*dG*d[5mC]*eT*eG*eG*eT*eT) [compound 416549]	68
416430 (antisense eG*e[5mC]*eA*eG*e[5mC]*dT*d[5mC]*d[5mC]*dT*d[5mC]*d[5mC]*dA*dG*dG*dA*eA*e[5mC]*eG*e[5mC]*eG) [compound 416430]	52

# ---- query substance ----
Entry under review: 416422 (antisense eA*eG*e[5mC]*eG*eA*d[5mC]*d[5mC]*d[5mC]*d[5mC]*dG*d[5mC]*d[5mC]*dT*dG*d[5mC]*eA*eG*e[5mC]*e[5mC]*eA) [compound 416422] . Reported % Inhibition?
8
